studyTarget: TIE2 (Homo sapiens (Human), UniProt Q02763)
Sequence (Q02763 23-1124): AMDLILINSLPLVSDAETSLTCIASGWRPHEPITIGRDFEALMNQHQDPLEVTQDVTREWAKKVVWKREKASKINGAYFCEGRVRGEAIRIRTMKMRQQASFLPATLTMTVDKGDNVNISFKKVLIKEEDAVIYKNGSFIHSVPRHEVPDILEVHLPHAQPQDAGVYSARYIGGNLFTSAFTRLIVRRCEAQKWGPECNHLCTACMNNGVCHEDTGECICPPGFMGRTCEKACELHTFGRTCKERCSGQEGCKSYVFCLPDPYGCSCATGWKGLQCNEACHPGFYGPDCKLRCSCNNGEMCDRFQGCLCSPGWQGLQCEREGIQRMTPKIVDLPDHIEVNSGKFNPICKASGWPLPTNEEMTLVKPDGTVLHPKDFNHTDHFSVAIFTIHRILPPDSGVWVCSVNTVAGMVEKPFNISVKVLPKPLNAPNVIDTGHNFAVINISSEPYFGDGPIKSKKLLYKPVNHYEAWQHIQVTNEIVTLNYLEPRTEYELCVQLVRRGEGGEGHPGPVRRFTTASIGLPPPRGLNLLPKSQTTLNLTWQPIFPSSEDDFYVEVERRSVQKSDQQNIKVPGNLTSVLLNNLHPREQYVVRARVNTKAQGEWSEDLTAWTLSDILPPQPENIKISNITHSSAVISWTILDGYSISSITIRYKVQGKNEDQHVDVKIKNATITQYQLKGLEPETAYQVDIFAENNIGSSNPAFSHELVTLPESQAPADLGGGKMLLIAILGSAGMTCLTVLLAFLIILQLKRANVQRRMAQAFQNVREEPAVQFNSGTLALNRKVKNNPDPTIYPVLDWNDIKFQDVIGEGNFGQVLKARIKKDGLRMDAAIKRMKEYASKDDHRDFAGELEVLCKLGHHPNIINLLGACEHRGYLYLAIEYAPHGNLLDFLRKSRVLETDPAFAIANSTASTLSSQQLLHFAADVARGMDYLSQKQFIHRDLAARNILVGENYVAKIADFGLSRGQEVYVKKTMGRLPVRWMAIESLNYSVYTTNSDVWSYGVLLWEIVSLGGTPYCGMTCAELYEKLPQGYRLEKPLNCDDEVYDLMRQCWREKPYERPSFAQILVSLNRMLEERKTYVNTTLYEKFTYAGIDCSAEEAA
measuredAttribute: pKd
To interpret pKd, take it as minus log10 of a concentration measured in moles per litre.

Output reported pKd of the molecule "CCN1CCN(Cc2ccc(NC(=O)c3cccc(-c4ccc5nc(NC(=O)C6CC6)sc5n4)c3)cc2C(F)(F)F)CC1" on TIE2 (Homo sapiens (Human), UniProt Q02763). 7.24

====

studyTarget: CDK3 (Homo sapiens (Human))
Sequence (Q00526 whole entry): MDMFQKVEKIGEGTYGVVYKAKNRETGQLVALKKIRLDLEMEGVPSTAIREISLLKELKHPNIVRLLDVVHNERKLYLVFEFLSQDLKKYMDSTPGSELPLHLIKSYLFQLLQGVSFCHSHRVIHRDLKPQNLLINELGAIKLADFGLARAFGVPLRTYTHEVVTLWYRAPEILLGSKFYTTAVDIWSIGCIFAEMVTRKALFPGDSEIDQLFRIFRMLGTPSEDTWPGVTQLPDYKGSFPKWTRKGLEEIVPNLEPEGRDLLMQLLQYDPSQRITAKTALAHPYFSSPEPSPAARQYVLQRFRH
measuredAttribute: pKd
Reminder that pKd means the negative base-10 logarithm of the concentration expressed in mol/L.

Give pKd only, for "CCN1CCN(Cc2ccc(NC(=O)c3cccc(-c4ccc5nc(NC(=O)C6CC6)sc5n4)c3)cc2C(F)(F)F)CC1" , using CDK3 (Homo sapiens (Human)) data. 6.60

====

studyTarget: UniProt:P24941
measuredAttribute: pKd
Formally, pKd is defined as -log10 of the concentration c, with c in mol/L.

Report value only: pKd, UniProt:P24941, "CCN1CCN(Cc2ccc(NC(=O)c3cccc(-c4ccc5nc(NC(=O)C6CC6)sc5n4)c3)cc2C(F)(F)F)CC1" 6.08

The measurements presented in this section are drawn from patent US8765747B2.
